Assay target: 5-HT2A receptor (Homo sapiens, UniProt P28223)
Sequence (P28223 whole entry): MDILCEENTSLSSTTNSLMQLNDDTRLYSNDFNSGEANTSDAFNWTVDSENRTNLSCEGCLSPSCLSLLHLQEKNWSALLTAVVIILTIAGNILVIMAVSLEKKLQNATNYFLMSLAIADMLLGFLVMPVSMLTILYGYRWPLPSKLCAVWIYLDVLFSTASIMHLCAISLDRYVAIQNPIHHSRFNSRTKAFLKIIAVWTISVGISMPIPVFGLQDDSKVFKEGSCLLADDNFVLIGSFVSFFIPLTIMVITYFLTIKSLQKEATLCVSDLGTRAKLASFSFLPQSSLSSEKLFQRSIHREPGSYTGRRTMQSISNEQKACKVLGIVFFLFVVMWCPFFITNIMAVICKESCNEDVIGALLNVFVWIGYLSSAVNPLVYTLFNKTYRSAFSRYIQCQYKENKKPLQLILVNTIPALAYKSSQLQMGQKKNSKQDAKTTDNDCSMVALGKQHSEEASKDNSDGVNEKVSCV
Test: cell-based
Type: cell-based
Parameters: expressed in transfected cells; host or cells: HEK293, stably transfected
Conditions used: HEK293, agonist, Ca2+ flux, HEK293, max dose; read-out: 5-HT2A % Act @ Max Dose
Values of Emax strictly less than 80% map to 1.0, and values of at least 80% map to 0.0.

Answered examples (4):
# Compound, Label value
data = [
    ("CCN(CC)C(=O)[C@@H]1C=C2c3cccc4[nH]cc(c34)C[C@H]2N(CCc2cccc(OC)c2)C1", 1.0),
    ("CC[C@@H](C)NC(=O)[C@H]1C=C2c3cccc4[nH]cc(c34)C[C@H]2N(C)C1", 1.0),
    ("CCN(CC)C(=O)[C@@H]1C=C2c3cccc4[nH]cc(c34)C[C@H]2N(CC2CC2)C1", 0.0),
    ("CCC[C@@H](C)NC(=O)[C@H]1C=C2c3cccc4[nH]cc(c34)C[C@H]2N(C)C1 [Int17a]", 1.0),
]

Query: Dear reviewer, please state whether CN(C)C(=O)[C@@H]1C=C2c3cccc4[nH]cc(c34)C[C@H]2N(Cc2ccccc2)C1 has Emax strictly beneath 80%.
Result: 1.0
